Provenance of the data: PubChem BioAssay (NCI)

Test system: NCI-H23 lung
TEST: NCI tumour cell line growth inhibition, 48 h
Entries and their measured TGI follow.
MEASURE_NAME: TGI (µM)

> print(dat)
                                   molecule  measured.target  measure.name  cmp  quantitative.result
1  O=[N+]([O-])c1ccc(Cl)cc1C=NC12CC3CC(CC(C3)C1)C2     NCI-H23 lung           TGI    =                 98.1
2  Nc1nc(SCCC/C=C/I)nc2c1ncn2C1OC(CO)C(O)C1O (stereo unspecified)     NCI-H23 lung           TGI    >                  202
3  C=C(C)[C@@H]1CC[C@]2(C(=O)NCCNCCNCCN)CC[C@]3(C)[C@H](CC[C@@H]4[C@@]5(C)CCC(=O)C(C)(C)[C@@H]5CC[C@]43C)[C@@H]12     NCI-H23 lung           TGI    =                 17.4
4  COc1ccc2c(c1)CCCC1C3=NCCC3(C)CSC21 (stereo unspecified)     NCI-H23 lung           TGI    >                  100
5  CCN1CCC(CC(=O)Nc2n[nH]c3nc(-c4cccs4)c(Br)cc23)CC1     NCI-H23 lung           TGI    >                   25
6  CNCCOC(=O)/C=C1/CCC2C(C(O)CC3C(C)(C(=O)OC)CCCC23C)C1C (stereo unspecified)     NCI-H23 lung           TGI    =               0.0355

###

Tested on: ACHN renal
TEST: NCI tumour cell line growth inhibition, 48 h
Entries and their measured log10 TGI follow.
MEASURE_NAME: log10 TGI (log10 of the value in µM)

> print(dat)
                        structure.as.smiles  quantitative.result
1             COC(=O)n1c(CBr)c(Br)c2ccccc21                 1.68
2  CCC[CH2][Sn]1([CH2]CCC)[O]C(=O)CN=Cc2ccccc2[O]1                 0.04
3             NCCCCNC1(c2cc3ccccc3s2)CCCCC1                 1.37
4    CCCCCCCCCCCCCCCCn1cc[n+](Cc2ccccc2)c1C                 0.85
5    Cc1ccc(/C(=C/C=C(C#N)C#N)Sc2ccccn2)cc1                 0.55
6  COc1cc2c3c(n(CCCNCCNCCCN)c(=O)c2cc1OC)-c1cc2c(cc1C3=O)OCO2                 0.41
7     N=C(N)c1ccc(-c2ccc(-c3ccc(F)cc3)o2)o1                 0.47
8  COC(=O)[C@@H]1CCCN1C(=O)[C@H]1CCCN1C(=O)[C@@H](Cc1c[nH]c2ccccc12)NC(=S)Nc1cc(C(F)(F)F)cc(C(F)(F)F)c1                 1.04
9  Cc1cc([N+](=O)[O-])ccc1N=NC(=O)NNc1ccc([N+](=O)[O-])cc1C                 1.47

###

Tested on: SF-539 CNS
TEST: NCI tumour cell line growth inhibition, 48 h; in the data active means GI50 below about 0.43 µM; inactive means the rest
Outcome codes: active, inactive

> print(dat)
                                    compound     label
 1    CCCCCCCCCCCCCCCCn1cc[n+](Cc2ccccc2)c1C  inactive
 2  O=C(Nc1cccc(-n2ccc3c(NC(=O)c4ccccc4)nccc32)c1)c1cc(N2CCOCC2)cc(C(F)(F)F)c1    active
 3  COc1cc2c3c(n(CCCNCCNCCCN)c(=O)c2cc1OC)-c1cc2c(cc1C3=O)OCO2  inactive
 4  CCC[CH2][Sn]1([CH2]CCC)[O]C(=O)CN=Cc2ccccc2[O]1  inactive
 5  COc1ccc(/C=C\c2cc(OC)c(OC)c(OC)c2)cc1OCC(=O)Nc1nc2ccc(OC(F)(F)F)cc2s1  inactive
 6  COc1ccc(-c2ccccc2)cc1-c1c(Nc2cc(Cl)cc(Cl)c2O)c(=O)c1=O  inactive
 7   O=[N+]([O-])/C=C/c1ccc([N+](=O)[O-])cc1  inactive
 8            Cc1cc(C)c2c(N)c3cccc(C)c3nc2n1  inactive
 9  COc1ccc(-n2c(C)nc3c(c(C)nn3-c3ccccc3)c2=O)cc1    active
10  O=C1OCC2=C1C(c1cccc(C(F)(F)F)c1)c1cc3c(cc1N2CCO)CCC3 (stereo unspecified)    active
11  COc1ccc2c(c1)[C@@]1(C)CCC3c4ccc(O)cc4CCC3C1C2 (stereo partly specified)  inactive
12  N/C(=N\c1nc2ccccc2s1)NC(=O)Nc1cccc2ccccc12    active
13  COc1ccc(C2=C(c3cc(OC)c(OC)c(OC)c3)C(=O)OC2)cc1OC    active
14    Cc1ccc(/C(=C/C=C(C#N)C#N)Sc2ccccn2)cc1  inactive
15             Cc1cn2c(=O)n(c1=O)Cc1ccccc1C2  inactive
16  C=C(C)[C@@H]1CC[C@]2(C(=O)NCCNCCNCCN)CC[C@]3(C)[C@H](CC[C@@H]4[C@@]5(C)CCC(=O)C(C)(C)[C@@H]5CC[C@]43C)[C@@H]12  inactive

###

Test system: 786-0 renal
TEST: NCI tumour cell line growth inhibition, 48 h; in the data active = GI50 below about 0.43 µM; inactive = the rest
Outcome codes: Y for active, N for inactive

> print(dat)
                                    compound  measured.target  label
 1  Cc1cc(NC(=O)NC(=O)c2ccccc2NC(=O)CN)ccc1Oc1ncc(Br)cn1      786-0 renal      Y
 2        COc1ccc(-c2csc3c2-n2cccc2C3=O)cc1O      786-0 renal      Y
 3  CC1(C)Cc2c(Br)c(Br)c(Br)c(OCC(O)CN3CCOCC3)c2O1 (stereo unspecified)      786-0 renal      N
 4  CCCCCCN1CCN(Cc2ccc(N(CC)CC)cc2)C(=O)C1=O      786-0 renal      N
 5  CCC[CH2][Sn]1([CH2]CCC)[O]C(=O)CN=Cc2ccccc2[O]1      786-0 renal      N
 6     N=C(N)c1ccc(-c2ccc(-c3ccc(F)cc3)o2)o1      786-0 renal      N
 7   O=[N+]([O-])/C=C/c1ccc([N+](=O)[O-])cc1      786-0 renal      N
 8  CN1C(=O)C(c2c[nH]c3ccccc23)=C(c2c(-c3c[nH]c4ccccc34)[nH]c3ccccc23)C1=O      786-0 renal      N
 9  COc1cc2c(cc1OC)-c1c(c3ccc([N+](=O)[O-])cc3c(=O)n1CCCN)C2=O      786-0 renal      N
10  Cc1ccccc1C(C(=O)NC1CCCCC1)N(C(=O)Cn1ccnc1C)c1cccc(F)c1 (stereo unspecified)      786-0 renal      N
11            Cc1cc(C)c2c(N)c3cccc(C)c3nc2n1      786-0 renal      N

###

Entries and their measured TGI follow.
Test system: MOLT-4 leukemia
TEST: NCI tumour cell line growth inhibition, 48 h
MEASURE_NAME: TGI

> print(dat)
                                   molecule    result
1  C#CCOC(=O)C(N)CCCN=C(N)N (stereo not drawn)  > 100 µM
2  COc1ccc(C(O)/C(=C/n2ccnc2)c2ccccc2)cc1OC (stereo not drawn)  > 100 µM
3  CCOC(=O)C(NCc1cccc(C(F)(F)F)c1)(NC(=O)c1ccccc1)C(F)(F)F (stereo not drawn)  > 100 µM
4                  COC(=O)c1cccc(C(=O)OC)c1  > 100 µM
5  COC(=O)[C@]12CC=C3O[C@@H]4OC5(CCCCC5)O[C@@H]4[C@H]3C1C(=O)C=CC2=O (stereo partly drawn)   21.4 µM
6  COc1cc(CNc2nc3cc(C(F)(F)F)ccc3nc2C)cc(OC)c1OC   50.7 µM
7  CC1CC2(CCC1OCc1ccccc1)OCCO2 (stereo not drawn)  > 100 µM
8   Cc1cccc2c1C/C(=C\c1cccc(C)c1C(=O)O)C2=O  > 100 µM

###

System: RPMI-8226 leukemia
TEST: NCI tumour cell line growth inhibition, 48 h
Entries and their measured TGI follow.
MEASURE_NAME: TGI

COMPOUND	RESULT
CO/C(=N\N=C\c1cccc(C(F)(F)F)c1)c1ccncc1	81.9 µM
Cc1ccc(Oc2nc3ccccc3cc2-c2nnc(Cn3c(COc4ccccc4)nc4ccccc43)o2)cc1	8.45 µM
CN1C(=O)C(c2c[nH]c3ccccc23)=C(c2c(-c3c[nH]c4ccccc34)[nH]c3ccccc23)C1=O	17.5 µM
O=C(NC1(C(=O)O)CC1c1ccccc1)c1ccccc1 (stereo unspecified)	> 100 µM
CC1CCC2(CC1)N=C1CCC(C)CC1C1(CCC(C)CC1)N2 (stereo unspecified)	> 100 µM
CCOC(=O)C(=O)Nc1ccc(Cl)c(C(F)(F)F)c1	> 100 µM
CC[C@@]1(O)C(=O)OCc2c1cc1n(c2=O)Cc2cc3c(NC(=O)CN)cccc3nc2-1	28.6 µM
O=C(C#Cc1cn(C2CC(O)C(CO)O2)c(=O)[nH]c1=O)c1ccccc1 (stereo unspecified)	> 100 µM
Cc1cc([N+](=O)[O-])ccc1N=NC(=O)NNc1ccc([N+](=O)[O-])cc1C	55.2 µM
Cc1ccccc1C(C(=O)NC1CCCCC1)N(C(=O)Cn1ccnc1C)c1cccc(F)c1 (stereo unspecified)	> 100 µM
CC1(C)[C@@H]2C[C@H]1C(Cc1cccc(C[C@H]3c4cc(-c5ccccn5)ncc4[C@H]4C[C@@H]3C4(C)C)c1)c1cc(-c3ccccn3)ncc12 (stereo partly specified)	32.1 µM
